Activity overview
- PROTOCOL: Antioxidant activity assessed as DPPH radical scavenging activity at 10 uM
- Type: functional
The response must be a number in % with no trailing unit.

c1ccc(-c2nccc3c2[nH]c2ccccc23)cc1 = -7

If you can, please state the reported Activity value of Fc1ccc(-c2nccc3c2[nH]c2ccccc23)cc1 . -3

Next: Cc1ccccc1-c1nccc2c1[nH]c1ccccc12 0

Next: Cc1ccc2[nH]c3c(-c4ccccc4)nccc3c2c1 2

Next: COc1ccc2[nH]c3c(-c4ccccc4)nccc3c2c1 -6

Next: O=C(c1ccc(C(F)(F)F)cc1)c1nccc2c1[nH]c1ccccc12 -1

Next: COc1ccc2[nH]c3c(C(=O)c4ccc(C(F)(F)F)cc4)nccc3c2c1 2

Where do the numbers come from? From ChEMBL document CHEMBL3870350.
